Data credit: patent US20240287124A1

# EXPERIMENT_DESCRIPTION: Aqueous solubility in PBS, pH 7.4
# Type: physicochemical
# CONDITIONS: phosphate buffered saline, pH 7.4, aqueous buffer, thermodynamic from solid, pH 7.4 phosphate buffered saline, 24 hours, amorphous or crystalline material; read-out: Aqu. Solubility
VALUE_TYPE: solubility at 24 h (µg/mL)

# example entries with known answers
• C#C[C@]1(CO)O[C@@H](n2ccc3c(NC(=O)CCCC)nc(Cl)nc32)C[C@@H]1O = 362
• C#C[C@]1(COC(=O)[C@@H](C)c2ccccc2)O[C@@H](n2ccc3c(N)nc(Cl)nc32)C[C@@H]1O = 19
• C#C[C@]1(CO)O[C@@H](n2ccc3c(N)nc(Cl)nc32)C[C@@H]1OC(=O)CCCC[C@@H]1SC[C@@H]2NC(=O)N[C@@H]21 = 161
• C#C[C@]1(CO)O[C@@H](n2ccc3c(N)nc(Cl)nc32)C[C@@H]1OC(=O)OCCCCC = 1.9
• C#C[C@]1(CO)O[C@@H](n2ccc3c(N)nc(Cl)nc32)C[C@@H]1OC(=O)OCCOC(C)=O = 66

(I) C#C[C@]1(COC(=O)OCCCCCCC)O[C@@H](n2ccc3c(N)nc(Cl)nc32)C[C@@H]1O
(II) C#C[C@]1(COC(=O)OCCCCCC)O[C@@H](n2ccc3c(N)nc(Cl)nc32)C[C@@H]1O
(III) C#C[C@]1(CO)O[C@@H](n2ccc3c(N)nc(Cl)nc32)C[C@@H]1OC(=O)C(CCC)CCC
Hey, can you sort those compounds up there by solubility at 24 h, smallest first? Output the labels ranked as instructed. III, I, II
(III: 2.4 µg/mL, I: 7 µg/mL, II: 108 µg/mL)
